# tgt: Mot3 (UniProt P54785)
# Sequence: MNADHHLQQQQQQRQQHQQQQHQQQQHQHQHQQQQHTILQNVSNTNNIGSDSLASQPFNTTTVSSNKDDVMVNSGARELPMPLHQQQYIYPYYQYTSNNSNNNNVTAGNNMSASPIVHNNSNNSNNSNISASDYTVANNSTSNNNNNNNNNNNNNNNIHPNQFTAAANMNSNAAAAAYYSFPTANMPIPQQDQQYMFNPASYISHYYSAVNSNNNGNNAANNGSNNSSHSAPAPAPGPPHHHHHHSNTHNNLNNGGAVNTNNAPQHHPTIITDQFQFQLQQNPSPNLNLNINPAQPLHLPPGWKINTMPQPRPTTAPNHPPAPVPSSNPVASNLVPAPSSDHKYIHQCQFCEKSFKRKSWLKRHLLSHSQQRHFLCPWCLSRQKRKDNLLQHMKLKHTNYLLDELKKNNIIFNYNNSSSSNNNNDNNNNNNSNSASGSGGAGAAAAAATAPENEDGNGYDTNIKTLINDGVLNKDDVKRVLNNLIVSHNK
# measurement_notes: PBM E-score (8-mer binding enrichment) (E-score (-0.5 to 0.5)); higher = stronger / more preferred TF binding
# condition_parameters: protein concentration: 200 nM; construct: GST-full length
Whole data set: some 33,000 sequences, median “E-score (-0.5 to 0.5)” near -0.035, cut for the highest 2% near 0.34. Only a selection was taken, and the highest values are over-represented in it overall.
PBM E-score below 0.07 gives not fulfilled; PBM E-score at or above it gives fulfilled.

Completed entries (count: 2):
{"sequence_entry": "ATTACCTA", "class": "fulfilled"}
{"sequence_entry": "CCTCTGAC", "class": "not fulfilled"}

Would you say "AAGACCAT" shows PBM E-score at minimum 0.07?
not fulfilled

Further, for "CAGTTGTA" ?
not fulfilled

Further, for "GCTCCCCC" ?
not fulfilled

Further, for "CTTAAGCA" ?
fulfilled
